// data source = patent US12037344B2

Tested on: THP-1 cells
Test: Measurement of IL-1β production, hTRF protocol (second alternative procedure), THP-1 cells
Assay type: cell-based, human
Conditions: Homo sapiens, THP-1, IL-1β production, human; read-out: NLRP3 hILIB EC50
measurement name: EC50 (nM)

Recorded results for 5 compounds are shown here.
smiles_repr=CCOCCn1cc2c(n1)c(N)nc1cc(-c3ccn[nH]3)ccc12 measurement_name=EC50 quantitative_result=220
smiles_repr=N#CCCCn1cc2c(N)nc3cc(-c4cc[nH]n4)ccc3c2n1 measurement_name=EC50 quantitative_result=80
smiles_repr=Nc1nc2cc(-c3cc[nH]n3)ccc2c2cn(CCNC(=O)c3ccccn3)nc12 measurement_name=EC50 quantitative_result=250
smiles_repr=Nc1nc2cc(-c3cc[nH]n3)ccc2c2cn(CCNC(=O)CC(F)(F)F)nc12 measurement_name=EC50 quantitative_result=6530
smiles_repr=Cc1nc(C(=O)NCCn2cc3c(n2)c(N)nc2cc(-c4cc[nH]n4)ccc23)cs1 measurement_name=EC50 quantitative_result=460

(P) Cc1nnc(Cn2cc3c(N)nc4cc(-c5cc[nH]n5)ccc4c3n2)o1
(Q) N#CC[C@H](O)Cn1cc2c(N)nc3cc(-c4cc[nH]n4)ccc3c2n1
(R) CC(=O)N1CCN(CCn2cc3c(N)nc4cc(-c5ccn[nH]5)ccc4c3n2)CC1
(S) Nc1nc2cc(-c3ccn[nH]3)ccc2c2cn(CCNC(=O)c3ccccn3)cc12
q: Arrange items by their EC50 values in increasing order. Give your ranking as a list of the labels in the requested order.
a: S, Q, P, R
(S: 410 nM, Q: 770 nM, P: 1390 nM, R: 31700 nM)
